Entries and their TGI values follow.
System: SNB-75 CNS
EXPERIMENT DESCRIPTION: NCI tumour cell line growth inhibition, 48 h
MEASURE: TGI (µM)

MOLECULE	MEASURE	COMPARATOR	TEST VALUE
CCc1ccccc1NC(=O)c1sc2nc3c(cc2c1N)C(=O)CCC3	TGI	=	55.1
Cc1cc(I)cc(CN(C)CCCN2CCOCC2)c1O	TGI	=	87.4
COCCOc1cnc2ccn([C@H](C)c3nnc4c(F)cc(-c5cnn(C)c5)cn34)c(=O)c2c1	TGI	>	100
C=C1C(=O)O[C@H]2/C=C(/C)C3=CC(=O)[C@@](C)(C[C@@H](OC(=O)/C(C)=C\C)C12)O3 (some centres undefined)	TGI	=	23.9
O=C(/C=C/c1cc(CN2CCOCC2)c(O)c2ncccc12)c1cc(CN2CCOCC2)c(O)c2ncccc12	TGI	=	42.6
COc1cccc(C2CC(C)=Nc3c(ccc4c3C(=O)c3ccccc3C4=O)N2)c1O (centres undefined)	TGI	>	100
COc1cccc(-n2c3nc(=O)n(C)c(=O)c-3nc3ccccc32)c1	TGI	=	76.2
CCOP(=O)(OCC)c1c(C(=O)OC)cc(=O)[nH]c1-c1ccc(C)cc1	TGI	=	29.3
Cc1cc(C2(O)C=C(C(C)(C)C)C(=O)C(C(C)(C)C)=C2)c(C)cc1C1(O)C=C(C(C)(C)C)C(=O)C(C(C)(C)C)=C1	TGI	>	100

----------
Listed compounds paired with reported TGI
System: 786-0 renal
EXPERIMENT DESCRIPTION: NCI tumour cell line growth inhibition, 48 h

COMPOUND	TGI
CC1=NN(c2ccc(S(=O)(=O)O)cc2)C2(C1)SCC(=O)N2c1nc2ccccc2s1 (stereo not given)	> 100 µM
COc1ccc(C2c3cc(OC)c(OC)cc3C(Cc3ccc([N+](=O)[O-])cc3)C2c2ccc([N+](=O)[O-])cc2)cc1OC (stereo not given)	> 100 µM
COc1cccc(/C(COc2ccc3c(c2)oc(=O)c2cc(OC)ccc23)=N/O)c1	> 100 µM
Cc1ccc(C2(O)CC(c3ccc([N+](=O)[O-])o3)=NN2C(=O)COc2ccc(Cl)cc2)cc1 (stereo not given)	18 µM
CC(=O)C1=C(C)NC2C=CC=CN12 (stereo not given)	> 100 µM
C/C=C/C(O)P1(=O)N(Cc2ccccc2)[C@@H]2CCCC[C@H]2N1Cc1ccccc1 (stereo not given in full)	> 25 µM
O=c1[nH]cnc2cccc(Cl)c12	> 100 µM
c1cc2nnnn2nc1N1CCCC1	> 100 µM
COCCOc1cnc2ccn([C@H](C)c3nnc4c(F)cc(-c5cnn(C)c5)cn34)c(=O)c2c1	> 100 µM
C=CCSS/C=C/CS(=O)CC=C (stereo not given)	33.4 µM

----------
System: RPMI-8226 leukemia
EXPERIMENT DESCRIPTION: NCI tumour cell line growth inhibition, 48 h; in the data active = GI50 below about 0.43 µM; inactive = the rest
Possible outcomes: active, inactive

INPUT SMILES	CATEGORY LABEL
CC(C)S(=O)(=O)c1ccccc1Nc1nc(Nc2cccc(NC(=O)CN)c2)ncc1Cl	active
O=[N+]([O-])c1ccc2c(c1)C(c1ccccc1Cl)=Nc1cn[nH]c1N2	inactive
N#C/C(=C/N1CCN(C(=O)c2ccco2)C1=S)C(=O)c1ccccc1	inactive
CCn1c(CO)nn(-c2cc(O[C@@H](C)C(F)(F)F)c(C(=O)Nc3c(F)cccc3Cl)cc2F)c1=O	active
C1C[OH+]CCNCC[OH+]CC[OH+]CCN1.[Cl-].[Pt+4]	inactive

----------
System: MOLT-4 leukemia
EXPERIMENT DESCRIPTION: NCI tumour cell line growth inhibition, 48 h; in the data active = GI50 below about 0.43 µM; inactive = the rest
Outcome codes: true (1) for active, false (0) for inactive

INPUT SMILES	CATEGORY LABEL
COc1cc2c(c(OC)n1)[C@]1(O)[C@H](O)[C@H](CN(C)C)[C@@H](c3ccccc3)[C@]1(c1ccc(C#N)cc1)O2	true (1)
Cc1cc[c-]cc1.Fc1c[c-]c(-c2ccccn2)c(F)c1.[Pt+2].c1ccc(P(C[PH+](c2ccccc2)c2ccccc2)c2ccccc2)cc1	false (0)
CC(C)N=c1cc2n(-c3ccc(Cl)cc3)c3ccccc3nc-2cc1Nc1ccc(Cl)cc1	false (0)
C[C@]12CC[C@@H]3c4ccc(O)cc4CC[C@H]3[C@@H]1CC[C@@H]2NS(=O)(=O)c1cccc(F)c1	false (0)

----------
System: NCI-H522 lung
EXPERIMENT DESCRIPTION: NCI tumour cell line growth inhibition, 48 h
Where a SMILES comes first, the peptide text is derived from it. The star is where a group is joined. X36 = O=C(c1ccc(-c2ccc(Cl)cc2Cl)o1)*

MOLECULE	TGI
C=CCCC(=O)CC(O)(C(F)(F)F)C(F)(F)F	> 100 µM
CC1=NN(c2ccc(S(=O)(=O)O)cc2)C2(C1)SCC(=O)N2c1nc2ccccc2s1 (centres undefined)	> 100 µM
N=C(N)c1ccc(N=Nc2c(O)ccc3c2[nH]c2ccccc23)cc1	> 100 µM
O=c1c2ncn(COCCCl)c2n(-c2ccccc2)c(=S)n1-c1ccccc1	> 100 µM
CCC(C)C(NC(=O)CNC(=O)C(Cc1ccccc1)NC(=O)C1CCCN1C(=O)c1ccc(-c2ccc(Cl)cc2Cl)o1)C(=O)OC (centres undefined) (X36-PFGI-OMe; configuration not given here)	> 100 µM
O=C(CSc1nnc(Cc2ccccc2)o1)Nc1ccc([N+](=O)[O-])cc1	> 100 µM
Cc1cc(NS(=O)(=O)c2ccc(Nc3c4ccccc4nc4c(C(=O)NCCN(C)C)cccc34)cc2)no1	4.56 µM
O=c1oc2ccccc2c(Nc2ccc3c(c2)Oc2ccccc2O3)c1[N+](=O)[O-]	65.5 µM
COC(=O)/C(C#N)=C1\CCC(O)N1 (centres undefined)	> 100 µM

----------
Documented GI50 across a set of compounds
Test system: CAKI-1 renal
EXPERIMENT DESCRIPTION: NCI tumour cell line growth inhibition, 48 h
MEASURE: GI50

COMPOUND	ASSAY TARGET	TEST VALUE
C[C@@]12CCCc3coc(c31)C(=O)c1cc3c(cc12)C(=O)C=CC3=O	CAKI-1 renal	> 1 µM
COc1ccc2c(c1)C(C)Cc1c(ncnc1-n1c(C)nc3ccccc31)N2C (stereo not given)	CAKI-1 renal	4.48 µM
COc1ccc(-c2ccc(/C=N/n3c(C)n[nH]c3=S)o2)c([N+](=O)[O-])c1	CAKI-1 renal	> 100 µM
Cc1cc2c(cc1Cl)SC(=Nc1ccc(Cl)cc1)N(S(=O)(=O)c1ccccc1)S2(=O)=O	CAKI-1 renal	5.37 µM
O=C(Nc1ccc(CO)cc1)c1coc2ccccc2c1=O	CAKI-1 renal	> 100 µM

----------
Test system: SF-268 CNS
EXPERIMENT DESCRIPTION: NCI tumour cell line growth inhibition, 48 h
The reader will find reported TGI values listed item by item below.

MOLECULE	TGI
CCCCCCCCCCCCCCCCCC(=O)O[C@H](COC(=O)CCCCCCCCCCC)COC(=O)CCCCCCCCCCCCCCC	> 100 µM
C1C[OH+]CCNCC[OH+]CC[OH+]CCN1.[Cl-].[Pt+4]	> 100 µM
Cc1cc(C)[n+](CCOc2ccc(/C(=C(/Cl)c3ccccc3)c3ccccc3)cc2)c(C)c1	7.55 µM
C1CCC2C(C1)CCCC2NC1=NCCO1 (stereo unspecified)	> 100 µM
Cc1cc(N/N=C/c2nc(-c3ccc(Br)cc3)oc2C)c2cc(Br)ccc2n1	46.2 µM
CCCC(C)NC1=C(NC(C)=O)C(=O)c2ccccc2C1=O (stereo unspecified)	> 100 µM

----------
Tested on: A498 renal
EXPERIMENT DESCRIPTION: NCI tumour cell line growth inhibition, 48 h
MEASURE: TGI

COMPOUND	ASSAY TARGET	MEASURE	TEST VALUE
CCCCC1(CN2CCOCC2)S/C(=N/c2nc(CC(=O)OCC)cs2)NC1=O (stereo not given)	A498 renal	TGI	> 100 µM
Cc1cc(C2CC(O)C(CO)O2)cc2c(=O)[nH]c(N)nc12 (stereo not given)	A498 renal	TGI	> 100 µM
O=C1CC2C(=O)N(Cc3ccccc3)C1C=C2S(=O)(=O)c1ccccc1 (stereo not given)	A498 renal	TGI	> 100 µM
COC(=O)[C@@H]1CCCN1CCN1CCC[C@H]1C(=O)OC	A498 renal	TGI	> 100 µM
COc1ccc(C(=O)COc2cccc(/C=C3\Oc4ccc5ccccc5c4C3=O)c2)cc1	A498 renal	TGI	37.1 µM

----------
Items are presented alongside their recorded TGI.
System: SNB-19 CNS
EXPERIMENT DESCRIPTION: NCI tumour cell line growth inhibition, 48 h
MEASURE: TGI

COMPOUND	ASSAY TARGET	TEST VALUE
COC(=O)N/N=C(\C)C(CN1CCCCC1)C(C1=C(O)c2ccccc2OC1)c1ccccc1 (stereo not given)	SNB-19 CNS	> 100 µM
COc1cc2ncn(-c3cc(OCCc4ccccc4)c(C(N)=O)s3)c2cc1OC	SNB-19 CNS	> 25 µM
COC(=O)[C@H](Cc1ccccc1)NC(=O)[C@H](Cc1ccccc1)NC(=O)[C@@H]1CCCN1C(=O)N[C@H]1C2C=CC(C2)C1C(=O)N1CCC[C@H]1C(=O)N[C@@H](C)C(=O)N[C@H](C(=O)OC)C(C)C (stereo not given in full)	SNB-19 CNS	> 100 µM
CC1=NN(c2ccc(S(=O)(=O)O)cc2)C2(C1)SCC(=O)N2c1nc2ccccc2s1 (stereo not given)	SNB-19 CNS	> 100 µM
CCOC(=N)CC(=O)Nc1cccc(C)c1C	SNB-19 CNS	> 100 µM
